B1: library; the commonest letter at each place (parent)
chain: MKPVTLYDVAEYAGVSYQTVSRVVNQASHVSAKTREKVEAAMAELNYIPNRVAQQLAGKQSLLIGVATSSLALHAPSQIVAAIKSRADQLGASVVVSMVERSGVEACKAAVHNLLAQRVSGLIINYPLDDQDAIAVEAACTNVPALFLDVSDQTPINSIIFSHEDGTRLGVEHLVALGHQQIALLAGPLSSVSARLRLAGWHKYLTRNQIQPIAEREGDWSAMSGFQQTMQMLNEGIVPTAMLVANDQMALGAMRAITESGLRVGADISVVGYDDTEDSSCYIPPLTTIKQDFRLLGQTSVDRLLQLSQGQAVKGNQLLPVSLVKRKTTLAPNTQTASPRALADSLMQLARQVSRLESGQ

- Variants of: B1
- Assay Info: Hill coefficient n (dimensionless); higher = steeper dose response
- Condition Context: with IPTG
Quick list: Hill coefficient n per entry.

{"Sequence Change": "E11K A67P F161S A186V M230L D344N", "Hill coefficient n": 1.44}
{"Sequence Change": "S69T S97T", "Hill coefficient n": 1.55}
{"Sequence Change": "I83M S97T", "Hill coefficient n": 1.52}
{"Sequence Change": "V271M", "Hill coefficient n": 1.64}
{"Sequence Change": "S77P E105V", "Hill coefficient n": 1.59}
{"Sequence Change": "L90Q L198M E235D T336S", "Hill coefficient n": 1.61}
{"Sequence Change": "K2R A92V R195P D278G", "Hill coefficient n": 2.03}
{"Sequence Change": "E39D N208D A222V", "Hill coefficient n": 1.55}
{"Sequence Change": "Q60R N113S R207G R216G V271M L307I A350T", "Hill coefficient n": 1.62}
{"Sequence Change": "I83M S97T V136E", "Hill coefficient n": 0.765}
{"Sequence Change": "S70R V271M", "Hill coefficient n": 1.46}
